- assayOverview: mitochondrial toxicity glu/gal assay
- Type: cell-based
- statedConditions: human, glucose, 1000 µM; read-out: cell viability (ATP), % of control
- Experimental: HepG2 cells were seeded in two 96-well plates at a density of 50,000 cells per well in 100 μL of growth medium. For the first plate, the growth medium contained glucose and for the second plate, it contained galactose. […] Luminescence was measured with Tecan Infinite 200 pro luminometer, and the values from each well treated with compound were compared to the values given by the negative control (medium only). […]
reportedProperty: viability at 1000 µM (%)

1) Cc1[nH]c(C(=O)Nc2nc3c(N4CCOCC4)cc(C(=O)O)cc3s2)c(Cl)c1Cl [7a]; 79

Cited source: paper PMC10041525
